target: Mannose-6-phosphate isomerase (Homo sapiens) (UniProt P34949); test: MPI inhibition at elevated mannose 6-phosphate – biochemical, fluorescence intensity, high mannose 6-phosphate, primary screen (AID 1220); settings: recombinant PMI enzyme, coupled fluorescence intensity; at 20 µM
Sequence (P34949 whole entry, looked up): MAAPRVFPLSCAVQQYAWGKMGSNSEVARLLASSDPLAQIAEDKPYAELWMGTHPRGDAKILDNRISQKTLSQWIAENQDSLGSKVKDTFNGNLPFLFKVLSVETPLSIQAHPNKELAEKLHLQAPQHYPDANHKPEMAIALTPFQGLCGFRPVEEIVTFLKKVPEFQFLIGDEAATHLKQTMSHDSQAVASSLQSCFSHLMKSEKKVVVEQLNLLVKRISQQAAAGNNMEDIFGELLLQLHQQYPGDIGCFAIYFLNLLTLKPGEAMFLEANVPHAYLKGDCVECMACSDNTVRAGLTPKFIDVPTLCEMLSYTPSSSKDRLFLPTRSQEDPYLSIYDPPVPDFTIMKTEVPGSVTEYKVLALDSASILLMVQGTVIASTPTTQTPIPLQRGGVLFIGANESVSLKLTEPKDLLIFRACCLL
In all, about 190,000 compounds went through this assay and about 1,300 (0.68%) were called active. Cut-off read from the data, not from the text of the source: active = inhibition above about 50%; inactive = the rest. Shown is part of a subset that was picked to be rich in actives.
Field 'call' accepts T = active, F = inactive

Field: example entries. Status: answers known.
# Compound, Discrete label
measured = [
    ("Cc1ccc2[nH]c(=O)c(C(c3nnnn3C3CCCC3)N3CCCc4ccccc43)cc2c1 (centres undefined)", "T"),
    ("COc1cccc(NC(=O)c2ccc(-c3ccccc3[N+](=O)[O-])o2)c1", "F"),
    ("COc1cc(CN2CCCC(C(=O)c3ccc4c5c(cccc35)CC4)C2)cc(OC)c1O (centres undefined)", "T"),
    ("Cc1nc(SCC(=O)c2ccccc2)n[nH]1", "T"),
    ("Cc1nn(-c2cccc(Cl)c2)c(Cl)c1/C=N/NC(=O)c1cccnc1", "T"),
]

Outcome? Cc1ccc(-n2nc(C)c(/C=N/NC(=O)c3cccnc3)c2Cl)cc1
F

Outcome? COc1ccc(/C=C(\C#N)C(=O)c2c(C)[nH]c3ccccc23)cc1OC
F

Sourced from PubChem BioAssay AID1220
